- measurement target: Human Cav2.2 channels (Homo sapiens, UniProt Q00975)
- Construct: also expresses Kir2.3)
- Sequence (Q00975 whole entry): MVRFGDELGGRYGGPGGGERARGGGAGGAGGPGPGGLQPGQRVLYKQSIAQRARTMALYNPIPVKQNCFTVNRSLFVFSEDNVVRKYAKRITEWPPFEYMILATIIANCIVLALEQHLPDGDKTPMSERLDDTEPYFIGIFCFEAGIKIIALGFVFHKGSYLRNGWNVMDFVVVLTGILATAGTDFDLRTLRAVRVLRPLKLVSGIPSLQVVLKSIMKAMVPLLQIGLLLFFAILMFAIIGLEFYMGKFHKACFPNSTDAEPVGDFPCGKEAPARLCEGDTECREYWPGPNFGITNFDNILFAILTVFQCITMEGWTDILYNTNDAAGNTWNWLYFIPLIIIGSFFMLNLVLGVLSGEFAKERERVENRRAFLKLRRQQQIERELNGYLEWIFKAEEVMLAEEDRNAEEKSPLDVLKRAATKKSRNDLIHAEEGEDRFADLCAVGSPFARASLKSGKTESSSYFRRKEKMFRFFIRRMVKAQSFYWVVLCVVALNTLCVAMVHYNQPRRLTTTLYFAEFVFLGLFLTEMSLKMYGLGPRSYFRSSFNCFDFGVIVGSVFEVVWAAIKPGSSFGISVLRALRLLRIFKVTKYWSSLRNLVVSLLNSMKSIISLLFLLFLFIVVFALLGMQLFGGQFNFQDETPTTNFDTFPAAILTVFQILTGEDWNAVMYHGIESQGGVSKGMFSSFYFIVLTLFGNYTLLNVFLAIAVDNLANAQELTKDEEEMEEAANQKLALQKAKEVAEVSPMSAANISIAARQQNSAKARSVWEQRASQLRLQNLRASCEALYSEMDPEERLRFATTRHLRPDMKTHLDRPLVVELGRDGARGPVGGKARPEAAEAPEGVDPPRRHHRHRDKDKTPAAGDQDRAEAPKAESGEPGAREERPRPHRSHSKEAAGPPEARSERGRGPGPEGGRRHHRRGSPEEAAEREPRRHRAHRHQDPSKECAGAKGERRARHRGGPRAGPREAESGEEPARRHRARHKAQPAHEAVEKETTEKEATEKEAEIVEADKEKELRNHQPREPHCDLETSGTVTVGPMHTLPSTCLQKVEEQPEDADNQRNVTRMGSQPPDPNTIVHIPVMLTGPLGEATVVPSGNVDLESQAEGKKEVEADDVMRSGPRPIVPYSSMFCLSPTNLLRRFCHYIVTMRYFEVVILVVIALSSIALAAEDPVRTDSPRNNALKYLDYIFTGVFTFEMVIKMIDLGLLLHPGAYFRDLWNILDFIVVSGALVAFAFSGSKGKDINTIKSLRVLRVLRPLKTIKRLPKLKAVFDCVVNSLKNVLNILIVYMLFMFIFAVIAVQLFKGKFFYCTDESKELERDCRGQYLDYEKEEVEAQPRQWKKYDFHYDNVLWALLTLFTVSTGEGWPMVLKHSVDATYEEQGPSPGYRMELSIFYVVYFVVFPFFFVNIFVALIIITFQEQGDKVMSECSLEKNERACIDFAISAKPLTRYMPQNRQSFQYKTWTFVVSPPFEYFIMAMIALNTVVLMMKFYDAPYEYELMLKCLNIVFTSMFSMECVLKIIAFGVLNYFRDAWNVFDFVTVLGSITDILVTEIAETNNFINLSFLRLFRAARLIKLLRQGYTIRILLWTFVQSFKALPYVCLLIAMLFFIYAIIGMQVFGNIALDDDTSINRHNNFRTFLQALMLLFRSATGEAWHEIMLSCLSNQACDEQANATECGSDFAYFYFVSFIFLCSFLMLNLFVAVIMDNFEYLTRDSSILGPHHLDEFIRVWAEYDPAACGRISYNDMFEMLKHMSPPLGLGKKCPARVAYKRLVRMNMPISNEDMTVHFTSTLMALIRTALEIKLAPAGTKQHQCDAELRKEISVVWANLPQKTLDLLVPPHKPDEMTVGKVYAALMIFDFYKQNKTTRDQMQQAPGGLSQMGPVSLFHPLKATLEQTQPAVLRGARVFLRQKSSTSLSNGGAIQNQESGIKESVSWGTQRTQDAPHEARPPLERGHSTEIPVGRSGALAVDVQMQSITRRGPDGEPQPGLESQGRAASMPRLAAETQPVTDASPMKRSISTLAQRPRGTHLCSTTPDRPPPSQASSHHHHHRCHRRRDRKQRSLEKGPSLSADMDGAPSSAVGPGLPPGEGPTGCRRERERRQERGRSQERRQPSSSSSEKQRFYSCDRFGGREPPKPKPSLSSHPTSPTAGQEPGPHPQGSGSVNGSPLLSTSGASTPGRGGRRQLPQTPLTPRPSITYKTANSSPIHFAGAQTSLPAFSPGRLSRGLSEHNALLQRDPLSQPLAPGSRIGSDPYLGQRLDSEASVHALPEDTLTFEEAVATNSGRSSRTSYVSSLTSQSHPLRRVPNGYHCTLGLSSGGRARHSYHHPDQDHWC
- assay procedure: Fluorescent assay for Cav2.2 channels using potassium depolarization to initiate channel opening (Assay Example 1)
- test settings: Assay Example 1, HEK293 cells expressing human Cav2.2; pre-incubation potassium concentration not stated
Decision: IC50 beneath 0.8 µM gives 1.0; IC50 meeting or exceeding 0.8 µM gives 0.0.

{"line notation": "CC(C)(C1CCN(C(=O)c2ccc(C(F)(F)F)cc2S(C)(=O)=O)CC1)S(=O)(=O)c1cccc(C(F)(F)F)c1", "class name": 1.0}

Is the reported IC50 for `CC(C)(C1CCN(C(=O)C[C@@H](NS(C)(=O)=O)c2ccccc2)CC1)S(=O)(=O)c1cccc(C(F)(F)F)c1` strictly below 0.8 µM?
1.0

Similarly, `CC(C)(C1CCN(C(=O)C2(N)CCC2)CC1)S(=O)(=O)c1cccc(C(F)(F)F)c1` ?
0.0

Similarly, `CC(C)(C1CCN(C(=O)c2cccc(F)c2)CC1)S(=O)(=O)c1cccc(C(F)(F)F)c1` ?
0.0

Similarly, `CC(C)(C)c1ccc(C(=O)N2CCC(C(C)(C)S(=O)(=O)c3cccc(C(F)(F)F)c3)CC2)cc1` ?
1.0

Similarly, `CC(C)(C1CCN(C(=O)[C@H](O)Cc2ccccc2)CC1)S(=O)(=O)c1cccc(C(F)(F)F)c1` ?
1.0

Similarly, `CC(C)(C1CCN(C(=O)[C@@H](N)Cc2ccccc2)CC1)S(=O)(=O)c1cccc(C(F)(F)F)c1` ?
1.0

Similarly, `CC(C)(C1CCN(C(=O)c2cccc3nccnc23)CC1)S(=O)(=O)c1cccc(C(F)(F)F)c1` ?
0.0

Similarly, `CC(C)(C1CCN(C(=O)c2c[nH]c(-c3ccccc3)n2)CC1)S(=O)(=O)c1cccc(C(F)(F)F)c1` ?
0.0
